B1: CPEB3 Ribozyme (parent)
chain: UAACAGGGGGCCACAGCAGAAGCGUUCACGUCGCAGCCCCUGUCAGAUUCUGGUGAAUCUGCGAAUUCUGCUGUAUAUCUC

Variants of: B1
Experiment: self-cleavage, relative activity (ratio to wild type); higher = more cleavage; in vitro, sequencing
self-cleavage vs 0.4: at or above is YES, below is NO.

| var | label.class |
| --- | --- |
| A64U U66C | NO |
| G6U C71A | NO |
| G7A C37A | NO |
| C32U C38U | NO |
| G53A C59A | YES |
| C29A A77G | YES |
| C34U U80G | NO |
| U72A U74A | YES |
| A15U G55A | YES |
| U1A C11G | YES |
| U58G U74A | NO |
| A28G | YES |
| A2U A13G | YES |
| A3G U72C | YES |
| C38A A57G | NO |
| A5G A64U | NO |
| C34A A56U | YES |
